All values here come from ChEMBL document CHEMBL4382218.

Reported values of selectivity ratio for individual entries
Experiment: Selectivity index, ratio of IC50 for HEK293T cells to MIC for Candida parapsilosis ATCC 22019
Assay type: toxicity
Conditions: human, read-out: Selectivity Index

mol smiles | censoring operator | selectivity ratio
C[C@@H]1C[C@H](C)C[C@H](C)[C@@H](O)CC(=O)O[C@H]([C@@H]2CCC[C@H]2C(=O)OCCN2CCN(CCC3OCCO3)CC2)C/C=C/C=C(/C#N)[C@H](O)[C@@H](C)C1 | < | 0.7
C[C@@H]1C[C@H](C)C[C@H](C)[C@@H](O)CC(=O)O[C@H]([C@@H]2CCC[C@H]2C(=O)OCCN2CCN(CC3CC3)CC2)C/C=C/C=C(/C#N)[C@H](O)[C@@H](C)C1 | < | 0.17
C[C@@H]1C[C@H](C)C[C@H](C)[C@@H](O)CC(=O)O[C@H]([C@@H]2CCC[C@H]2C(=O)O)C/C=C/C=C(/C#N)[C@H](O)[C@@H](C)C1 | = | 0.28
C[C@@H]1C[C@H](C)C[C@H](C)[C@@H](O)CC(=O)O[C@H]([C@@H]2CCC[C@H]2C(=O)OCCN2CCN(CC3CCCCC3)CC2)C/C=C/C=C(/C#N)[C@H](O)[C@@H](C)C1 | < | 0.23
C[C@@H]1C[C@H](C)C[C@H](C)[C@@H](O)CC(=O)O[C@H]([C@@H]2CCC[C@H]2C(=O)OCCN(C)C)C/C=C/C=C(/C#N)[C@H](O)[C@@H](C)C1 | = | 0.39
